Test system: MS2 coat protein
Experiment: apparent KD of MS2 coat protein; designed switch direction (-1 OFF switch, 1 ON switch): -1; higher = weaker reporter binding
Settings: input ligand: FMN 200 uM
Class 1: apparent KD of MS2 coat protein at least 200 nM. Class -1: apparent KD of MS2 coat protein below 200 nM.

Reference set, count: 8
GCUCCAGGAGGAUAUGCAUUCGAAAACAUGAGGAUCACCCAUGUAGGUGUCCACGUGCGAGCAGAAGGCCUAAAAC [Riqu] (Eterna round: R97, puzzle: Exclusion 5) | 1
UUCGUGCUGCUUUGCUGUACGAGUACAUGAGGAUCACCCAUGUAGGAUAUGGUUCGCUUUGCGUGCUAGAAGGAUAUGUGUUGC [salish99_ExNG3_r04_507] (Eterna round: R96, puzzle: Exclusion NG 3) | -1
CCACUGUCAGGAUAUCGUGCAUAAGCGUUUACACUUAUGUGCGAGAAGGGACAUGAGGAUCACCCAUGUAAACG [Omei Ex4 A28PK7] (Eterna round: R97, puzzle: Exclusion 4) | 1
GGCUUGCUAGUAGGAUAUCGCUUGUACAUGAGGAUCACCCAUGUGUGAUAUGCCUACAUAGUGCGUGAGAAGGACUGCAAGCCG [Diatdiinin] (Eterna round: R96, puzzle: Exclusion NG 2) | -1
UAUUAGCAAGUGAGAUCCCACAUGAGGAUCACCCAUGUGCUCGUCUUAUAAGGUACUGUGACGAAAGUCACGGUACC [Sensor 3, v1 - 91 v1] (Eterna round: R97, puzzle: Sensor, turn-off variant 1) | -1
ACAUGAGGAUCACCCAUGUCUGGCUGGUCUGCUCCGGCUGUUGAGGAUAUAGUCCGGUGUUCGCGCUAGAAGGUGAGGGCUGGA [Aenatbe mod 41] (Eterna round: R96, puzzle: Exclusion NG 3) | -1
CCUUGUCUGAAGGAUAUCCGCCUAAAAGGCAAGGGAGAAGGUUAGACAUGAGGAUCACCCAUGUGCCGGUGUAA [EX6 A.26] (Eterna round: R97, puzzle: Exclusion 6) | -1
CCCGAGCUAGGAUAUGCACAAGGUAUCGAUCCACAACACACACAUGAGGAUCACCCAUGUAGAAGGAGCAUCGU [Eternabot (L2) Solution 27] (Eterna round: R97, puzzle: Exclusion 2) | -1

Okay, now this sequence:
Task item: Kindly determine if apparent KD of MS2 coat protein recorded for GGAUAAAACUGAGGAUAUACGUAUCACUAACGAGUAGAAGGCAGACAUGAGGAUCACCCAUGUGAGUUCUCAAUAAGAAACACG [Prohibition 65 - Jieux - Exclusion NG 1] (Eterna round: R96, puzzle: Exclusion NG 1) is above or exactly 200 nM.
Reply: -1

---

System: MS2 coat protein
Assay: apparent KD of MS2 coat protein; higher = weaker reporter binding
Details: Eterna round: R107; input ligand: arginine 13.2 mM
apparent KD of MS2 coat protein values, listed per item
Write the value in nM as a bare number.

Example entries and their recorded answers appear below.
UGUAACAUGAGGAUCACCCAUGUAAGUGAUACCAGAUAAGUAGUAGUCCCUUGGCAGCAUAUUGGGCGAGUGUAUAGUCUAUACG [Same State - Theophylline A (Freestyle 7)] | 39.9
AAUAUAUAGACGGCCGCCACUGGAACCAAUACAUGAGGAUCACCCAUGUGAAAAGGAUAGGUUCACAGGACCGGGUCUUCAUGUA [SS Tryp B Tesla 1.3] | 40.5

Below: the item to evaluate.
Task item: Name the recorded apparent KD of MS2 coat protein of the item CUAUGUAUAUAUGCGAAAGCUACGUGUUGACGAGGACCGGUACGGCCGCCACUCGACAUGAGGAUCACCCAUGUAAUAUAUAUAG [BMP_BFE] in your answer.
Reply: 102
